- target system: TNAP (Homo sapiens, UniProt P05186)
- Sequence (P05186 18-502 limits assumed): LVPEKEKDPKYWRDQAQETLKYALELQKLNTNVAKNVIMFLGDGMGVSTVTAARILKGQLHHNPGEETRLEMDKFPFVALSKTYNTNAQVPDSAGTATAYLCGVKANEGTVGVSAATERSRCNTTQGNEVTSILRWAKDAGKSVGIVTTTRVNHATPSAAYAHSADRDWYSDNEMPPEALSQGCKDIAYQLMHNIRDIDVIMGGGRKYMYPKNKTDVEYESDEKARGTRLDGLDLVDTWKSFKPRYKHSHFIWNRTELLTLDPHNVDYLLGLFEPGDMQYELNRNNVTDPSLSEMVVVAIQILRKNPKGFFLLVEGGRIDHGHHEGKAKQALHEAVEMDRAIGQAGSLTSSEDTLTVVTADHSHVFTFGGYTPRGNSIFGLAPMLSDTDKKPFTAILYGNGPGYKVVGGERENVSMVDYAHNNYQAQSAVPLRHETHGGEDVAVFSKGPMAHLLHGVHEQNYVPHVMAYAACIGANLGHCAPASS
- assay overview: TNAP inhibitory activity, colorimetric assay (alkaline phosphatase assay kit ab83369, pNPP substrate)
- Assay type: biochemical
- setup conditions: TNAP enzyme, 2 hours at room temperature, absorbance 405 nm
- Protocol: The TNAP inhibitory activity of the compounds according to the present invention was analyzed by colorimetric assay. The experiments were performed according to the protocol of the alkaline phosphatase assay kit ab83369. TNAP enzyme at a concentration of 0.2 ng/µl was dispensed into a 96-well plate (Costar) (10 µl/well), to which the 10-fold diluted test substance was added (15 µl/well). […]
pIC50: −log10 of the molar value. Structures can show the parent of a compound that is named as a salt.
quantity name: pIC50

compound | meas value
COc1ccc(-c2cnn(C(C)(C)C)c2)cc1S(=O)(=O)Nc1cnc2c(c1)C(=O)NCC2 | 7.00 to 8.00
COc1ccc(Br)cc1S(=O)(=O)Nc1cnc2c(c1)CN(C(=O)CC(C)(C)C)CC2 | 7.00 to 8.00
COc1ccc(Br)cc1S(=O)(=O)Nc1cnc2c(c1)CN(C(C)C)CC2 | 6.00 to 7.00
COc1ccc(Br)cc1S(=O)(=O)Nc1cnc2c(c1)C(=O)NC2 | 7.00 to 8.00
O=C1NCCc2ncc(NS(=O)(=O)c3cc(Br)cc4c3OCC4)cc21 | 6.00 to 7.00
COc1ccc(Br)cc1S(=O)(=O)Nc1cnc2c(c1)CNCC2 [Example 93, hydrochloride] | 7.00 to 8.00
COc1ccc(-c2ccc(CCC(=O)O)cc2)cc1S(=O)(=O)Nc1cnc2c(c1)C(=O)NCC2 | 7.00 to 8.00
CCNC(=O)Cn1cc(-c2ccc(OC)c(S(=O)(=O)Nc3cnc4c(c3)C(=O)NCC4)c2)cn1 | ≤ 6.00

###

Where a name gives a salt, the structure may show the parent alone.
Let's go through some IC50 measurements on TNAP (Homo sapiens, UniProt P05186) together.
quantity name: IC50

molecule | meas value
COc1ccc(Cl)cc1S(=O)(=O)Nc1cnc2c(c1)C(=O)NCCC2 [Example 13] | 0.1 to 1 µM
COc1ccc(Cl)cc1S(=O)(=O)Nc1cnc2c(c1)CN(C(=O)N1CCOCC1)CC2 [Example 109] | 0.01 to 0.1 µM
CCn1cc(-c2ccc(OC)c(S(=O)(=O)Nc3cnc4c(c3)C(=O)NCC4)c2)c(C(F)(F)F)n1 [Example 82] | ≤ 0.01 µM
COc1ccc(-c2cnn(CC(=O)OC(C)(C)C)c2)cc1S(=O)(=O)Nc1cnc2c(c1)C(=O)NCC2 [Example 47] | 0.1 to 1 µM
COc1ccc(C2=CCN(C(=O)OC(C)(C)C)CC2)cc1S(=O)(=O)Nc1cnc2c(c1)C(=O)NCC2 [Example 52] | 0.1 to 1 µM
O=C1NCc2ncc(NS(=O)(=O)c3cccc4c3OCC4)cc21 [Example 18] | ≥ 1 µM
COc1ccc(OC)c(S(=O)(=O)Nc2cnc3c(c2)C(=O)NCC3)c1 [Example 7] | ≤ 0.01 µM
O=C1NCCc2ncc(NS(=O)(=O)c3ccc4c(c3)OCCO4)cc21 [Example 24] | ≥ 1 µM
O=C1NCCc2ncc(NS(=O)(=O)c3cc(F)ccc3-c3ccc(C4(C(=O)O)CC4)cc3)cc21 [Example 36] | 0.01 to 0.1 µM
COc1ccc(Cl)cc1S(=O)(=O)Nc1cnc2c(c1)CN(C(=O)Nc1ccccc1)CC2 [Example 115] | 0.01 to 0.1 µM
NCc1ccc(-c2cc(F)cc(F)c2S(=O)(=O)Nc2cnc3c(c2)C(=O)NCC3)cc1 [Example 40, hydrochloride] | ≥ 1 µM
